- Assayed target: Muscarinic acetylcholine receptor M5 (Homo sapiens)
- Measurement protocol: human M5 potentiators of ACh EC20 response – cell-based, CHO-K1 hM5, Fluo-4 calcium flux, concentration-response, confirmation (AID 743102)
- Cond: ACh EC20 PAM
Reported endpoint: EC50

Structure smiles string: CCN(Cc1ccccc1)C(=O)C1CCN(S(=O)(=O)c2cccc(OC(F)F)c2)CC1
Result: 3980 nM

Structure smiles string: CCN(C(=O)C1CCN(S(=O)(=O)c2ccc3c(c2)CCO3)CC1)[C@H](C)c1ccccc1
Result: 980 nM

Structure smiles string: CCN(Cc1ccccc1)C(=O)C1CCN(S(=O)(=O)c2ccc(OC)cc2)CC1
Result: 3570 nM

Structure smiles string: CCN(Cc1ccccc1)C(=O)C1CCN(S(=O)(=O)c2ccc(Br)cc2)CC1
Result: 3920 nM

Structure smiles string: CCN(Cc1ccccc1)C(=O)C1CCN(S(=O)(=O)c2ccc3c(c2)OCCO3)CC1
Result: 12300 nM

Structure smiles string: CCN(Cc1ccccc1OC)C(=O)C1CCN(S(=O)(=O)c2ccc3cn[nH]c3c2)CC1
Result: 7090 nM

The recorded EC50 for "CCN(Cc1ccccc1C)C(=O)C1CCN(S(=O)(=O)c2ccc3cn[nH]c3c2)CC1" is 940 nM

The recorded EC50 for "CCN(Cc1ccccc1)C(=O)C1CCN(S(=O)(=O)c2ccc3cn[nH]c3c2)CC1" is 2090 nM

The recorded EC50 for "CCN(Cc1ccccc1C(F)(F)F)C(=O)C1CCN(S(=O)(=O)c2ccc3[nH]ncc3c2)CC1" is 230 nM

The recorded EC50 for "CCN(Cc1ccccc1)C(=O)C1CCN(S(=O)(=O)c2ccc(OC(F)F)cc2)CC1" is 5050 nM

The recorded EC50 for "CCN(Cc1ccccc1C(F)(F)F)C(=O)C1(F)CCN(S(=O)(=O)c2ccc3[nH]ncc3c2)CC1" is 430 nM

The recorded EC50 for "CCCN(Cc1ccccc1C(F)(F)F)C(=O)C1CCN(S(=O)(=O)c2ccc3[nH]ncc3c2)CC1" is 160 nM

The recorded EC50 for "CCN(C(=O)C1CCN(S(=O)(=O)c2ccc(-n3cccn3)cc2)CC1)[C@H](C)c1ccccc1" is 700 nM

The recorded EC50 for "C=CCN(Cc1ccccc1C(F)(F)F)C(=O)C1CCN(S(=O)(=O)c2ccc3[nH]ncc3c2)CC1" is 1860 nM

The recorded EC50 for "[2H]C([2H])(C)N(C(=O)C1CCN(S(=O)(=O)c2ccc3cn[nH]c3c2)CC1)[C@H](C)c1ccccc1" is 530 nM

The recorded EC50 for "CCN(C(=O)C1CCN(S(=O)(=O)c2ccc3cn[nH]c3c2)CC1)[C@H](C)c1ccccc1" is 830 nM

The recorded EC50 for "CCN(Cc1ccccc1)C(=O)C1CCN(S(=O)(=O)c2ccc(OC(F)(F)F)cc2)CC1" is 6100 nM

The recorded EC50 for "CCN(Cc1ccccc1C(F)(F)F)C(=O)C1CCN(S(=O)(=O)c2ccc(-n3cccn3)cc2)CC1" is 1260 nM

The recorded EC50 for "CCN(Cc1ccccc1)C(=O)C1CCN(S(=O)(=O)c2ccccc2)CC1" is 5370 nM
